- Test system: U87MG pLVX-IDH2 R140Q-neo cells
- assayOverview: U87MG pLVX-IDH2 R140Q-neo cell based assay, 2-HG in media by LC-MS at 48 hours
- measurementConditions: Homo sapiens, U-87 MG
pIC50: −log10 of the molar value.
Answer each item with its documented pIC50.

Inquiry: # query: pIC50 | item `CC(C)Nc1nc(Nc2ccnc(C(C)(C)C#N)c2)nc(-c2cccc(C(F)(F)F)n2)n1` | system: U87MG pLVX-IDH2 R140Q-neo cells
Reply text: > 7.00

Inquiry: // repeat for `CC(C)(C)OC(=O)N1CCC(Nc2nc(Nc3ccccc3)nc(-c3ccccc3)n2)CC1` and report
Reply text: 6.00 to 7.00

Inquiry: // repeat for `CC(C)(O)CNc1nc(Nc2ccc(F)nc2)nc(-c2cccc(C(F)(F)F)n2)n1` and report
Reply text: 6.00 to 7.00

Inquiry: // repeat for `CC(C)Nc1nc(Nc2ccc(F)nc2)nc(-c2ccccc2F)n1` and report
Reply text: > 7.00

Inquiry: // repeat for N#Cc1cc(Nc2nc(NC3C4COCC43)nc(-c3cccc(C(F)(F)F)n3)n2)ccn1 (centres unmarked) and report
Reply text: > 7.00

Inquiry: // repeat for `CC(C)Nc1nc(Nc2ccnc(N(C)C)c2)nc(-c2ccccc2)n1` and report
Reply text: > 7.00

Inquiry: // repeat for `CC(F)(F)c1cccc(-c2nc(NCC3CC3)nc(Nc3cc(F)cc(S(C)(=O)=O)c3)n2)n1` and report
Reply text: > 7.00

Inquiry: // repeat for `COc1ccc(F)c(-c2nc(Nc3ccnc(C(F)(F)F)c3)nc(NC3COC3)n2)c1` and report
Reply text: 6.00 to 7.00

Inquiry: // repeat for `Cc1ncc(Nc2nc(NC(C)C)nc(-c3ccccc3)n2)cn1` and report
Reply text: 6.00 to 7.00

Inquiry: // repeat for `CC(C)(C)Nc1nc(Nc2cc(F)cc(F)c2)nc(-c2cccc(N)n2)n1` and report
Reply text: > 7.00

Inquiry: // repeat for `CC(C)Nc1nc(Nc2ccnc(C(F)(F)F)c2)nc(-c2cc(O)ccc2F)n1` and report
Reply text: > 7.00

###

Answer each item with its documented IC50.
- targetOfAssay: IDH2 R140Q (Homo sapiens, UniProt P48735, R140Q)
- Sequence (P48735 40-452 R140Q): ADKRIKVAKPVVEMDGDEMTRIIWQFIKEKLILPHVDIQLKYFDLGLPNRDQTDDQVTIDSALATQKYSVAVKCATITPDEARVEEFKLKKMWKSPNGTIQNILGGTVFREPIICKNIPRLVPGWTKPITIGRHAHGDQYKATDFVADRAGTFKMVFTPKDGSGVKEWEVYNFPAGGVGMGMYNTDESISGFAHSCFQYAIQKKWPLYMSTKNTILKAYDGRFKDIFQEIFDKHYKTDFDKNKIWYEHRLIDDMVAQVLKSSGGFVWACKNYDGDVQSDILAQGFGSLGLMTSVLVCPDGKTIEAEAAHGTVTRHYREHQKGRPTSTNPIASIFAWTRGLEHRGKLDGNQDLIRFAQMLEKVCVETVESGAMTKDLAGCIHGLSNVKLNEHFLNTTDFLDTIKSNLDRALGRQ
- assayOverview: IDH2 R140Q enzymatic assay (cofactor depletion, similar format)
- Type: biochemical
- measurementConditions: read-out: Enz R140Q

Inquiry: Quick one: IC50 for `CC(C)Nc1nc(Nc2ccc(F)nc2)nc(-c2ccccc2)n1` ?
Reply text: < 100 nM

Inquiry: // repeat for `CC(C)Nc1nc(Nc2ccnc(C(C)(F)F)c2)nc(-c2cccc(C(C)(F)F)n2)n1` and report
Reply text: 100 to 1000 nM

Inquiry: // repeat for `CC(C)Nc1nc(Nc2cc(F)cc(F)c2)nc(-c2cccc(C(C)(F)F)n2)n1` and report
Reply text: 100 to 1000 nM

Inquiry: // repeat for `CC(C)Nc1nc(Nc2ccc(F)nc2)nc(-c2cccc(Cl)n2)n1` and report
Reply text: 100 to 1000 nM
